Test: Stability of the compound assessed as human recombinant DcpS -mediated hydrolysis after 2 hrs by HPLC
Assay type: ADME
quantity measured: Drug degradation

CO[C@@H]1[C@H](O)[C@@H](COP(=O)([O-])OP(=O)([O-])OP(=O)([O-])NP(=O)([O-])OC[C@H]2O[C@@H](n3cnc4c(=O)[nH]c(N)nc43)[C@H](O)[C@@H]2O)O[C@H]1n1c[n+](C)c2c(=O)[nH]c(N)nc21.[Na+].[Na+].[Na+]; Active
C[n+]1cn([C@@H]2O[C@H](COP(=O)([O-])OP(=O)(O)OP(=O)(O)NP(=O)(O)OC[C@H]3O[C@@H](n4cnc5c(=O)[nH]c(N)nc54)[C@H](O)[C@@H]3O)[C@@H](O)[C@H]2O)c2nc(N)[nH]c(=O)c21.N.N.N; Active
C[n+]1cn([C@@H]2O[C@H](COP(=O)([O-])NP(=O)(O)OP(=O)(O)OC[C@H]3O[C@@H](n4cnc5c(=O)[nH]c(N)nc54)[C@H](O)[C@@H]3O)[C@@H](O)[C@H]2O)c2nc(N)[nH]c(=O)c21.N.N; Not Active
CO[C@@H]1[C@H](O)[C@@H](COP(=O)([O-])NP(=O)(O)OP(=O)(O)OP(=O)(O)OC[C@H]2O[C@@H](n3cnc4c(=O)[nH]c(N)nc43)[C@H](O)[C@@H]2O)O[C@H]1n1c[n+](C)c2c(=O)[nH]c(N)nc21.N.N.N; Not Active

###

Species: Homo sapiens
Assay: Selectivity ratio of Ka for human recombinant DcpS to Ka for eIF4E
quantity measured: Ratio

Some compounds with known Ratio results, for comparison:
C[n+]1cn([C@@H]2O[C@H](COP(=O)(O)CP(=O)(O)OP(=O)([O-])OC[C@H]3O[C@@H](n4cnc5c(=O)[nH]c(N)nc54)[C@H](O)[C@@H]3O)[C@@H](O)[C@H]2O)c2nc(N)nc(O)c21; 37.1
CO[C@@H]1[C@H](O)[C@@H](COP(=O)([O-])NP(=O)([O-])OP(=O)([O-])OC[C@H]2O[C@@H](n3cnc4c(=O)[nH]c(N)nc43)[C@H](O)[C@@H]2O)O[C@H]1n1c[n+](C)c2c(=O)[nH]c(N)nc21.[Na+].[Na+]; 1.8

A: CO[C@@H]1[C@H](O)[C@@H](COP(=O)([O-])NP(=O)(O)OP(=O)(O)OP(=O)(O)OC[C@H]2O[C@@H](n3cnc4c(=O)[nH]c(N)nc43)[C@H](O)[C@@H]2O)O[C@H]1n1c[n+](C)c2c(=O)[nH]c(N)nc21.N.N.N
B: C[n+]1cn([C@@H]2O[C@H](COP(=O)(O)CP(=O)(O)OP(=O)([O-])OP(=O)(O)OC[C@H]3O[C@@H](n4cnc5c(=O)[nH]c(N)nc54)[C@H](O)[C@@H]3O)[C@@H](O)[C@H]2O)c2nc(N)nc(O)c21
Task: For this pair, A and B , which shows a numerically higher Ratio? Reply briefly: the label of your chosen item.
Result: B
(B: 3.1, A: 0.38)

###

Target: Eukaryotic translation initiation factor 4E (Oryctolagus cuniculus, UniProt P29338)
Sequence (P29338 whole entry): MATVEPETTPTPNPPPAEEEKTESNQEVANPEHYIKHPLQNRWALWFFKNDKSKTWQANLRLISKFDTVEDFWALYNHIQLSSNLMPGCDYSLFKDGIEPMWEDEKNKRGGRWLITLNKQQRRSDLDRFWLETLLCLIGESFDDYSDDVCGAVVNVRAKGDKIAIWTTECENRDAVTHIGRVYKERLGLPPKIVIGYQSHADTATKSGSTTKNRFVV
Experiment: Inhibition of eIF4E-mediated mRNA translation in rabbit reticulocyte lysate by luciferase reporter gene assay
pIC50: −log10 of the molar value.
quantity measured: pIC50

Some compounds with known pIC50 results, for comparison:
C[n+]1cn([C@@H]2O[C@H](COP(=O)([O-])OP(=O)(O)OP(=O)(O)NP(=O)(O)OC[C@H]3O[C@@H](n4cnc5c(=O)[nH]c(N)nc54)[C@H](O)[C@@H]3O)[C@@H](O)[C@H]2O)c2nc(N)[nH]c(=O)c21.N.N.N; 5.45
C[n+]1cn([C@@H]2O[C@H](COP(=O)([O-])NP(=O)(O)OP(=O)(O)OC[C@H]3O[C@@H](n4cnc5c(=O)[nH]c(N)nc54)[C@H](O)[C@@H]3O)[C@@H](O)[C@H]2O)c2nc(N)[nH]c(=O)c21.N.N; 5.40
C[n+]1cn([C@@H]2O[C@H](COP(=O)(O)OP(=O)(O)OP(=O)(O)OP(=O)(O)OC[C@H]3O[C@@H](n4cnc5c(=O)[nH]c(N)nc54)[C@H](O)[C@@H]3O)[C@@H](O)[C@H]2O)c2nc(N)[n-]c(=O)c21; 5.30

I: C[n+]1cn([C@@H]2O[C@H](COP(=O)([O-])NP(=O)([O-])OP(=O)([O-])OP(=O)([O-])OC[C@H]3O[C@@H](n4cnc5c(=O)[nH]c(N)nc54)[C@H](O)[C@@H]3O)[C@@H](O)[C@H]2O)c2nc(N)[nH]c(=O)c21.[Na+].[Na+].[Na+]
II: C[n+]1cn([C@@H]2O[C@H](COP(=O)([O-])OP(=O)([O-])NP(=O)([O-])OC[C@H]3O[C@@H](n4cnc5c(=O)[nH]c(N)nc54)[C@H](O)[C@@H]3O)[C@@H](O)[C@H]2O)c2nc(N)[nH]c(=O)c21.[Na+].[Na+]
Task: Among I and II , whose measured pIC50 is the smaller figure? Reply briefly: the label of your chosen item.
Result: II
(II: 5.07, I: 5.58)

###

Test: Stability of the compound assessed as human recombinant DcpS -mediated hydrolysis after 2 hrs by HPLC
Assay type: ADME
quantity measured: Drug degradation

CO[C@@H]1[C@H](O)[C@@H](COP(=O)(O)OP(=O)([O-])OP(=O)(O)OP(=O)(O)OC[C@H]2O[C@@H](n3cnc4c(=O)[nH]c(N)nc43)[C@H](O)[C@@H]2O)O[C@H]1n1c[n+](C)c2c(O)nc(N)nc21; Active
C[n+]1cn([C@@H]2O[C@H](COP(=O)([O-])NP(=O)([O-])OP(=O)([O-])OP(=O)([O-])OC[C@H]3O[C@@H](n4cnc5c(=O)[nH]c(N)nc54)[C@H](O)[C@@H]3O)[C@@H](O)[C@H]2O)c2nc(N)[nH]c(=O)c21.[Na+].[Na+].[Na+]; Not Active
CO[C@@H]1[C@H](O)[C@@H](COP(=O)([O-])NP(=O)([O-])OP(=O)([O-])OC[C@H]2O[C@@H](n3cnc4c(=O)[nH]c(N)nc43)[C@H](O)[C@@H]2O)O[C@H]1n1c[n+](C)c2c(=O)[nH]c(N)nc21.[Na+].[Na+]; Not Active
C[n+]1cn([C@@H]2O[C@H](COP(=O)(O)OP(=O)(O)OP(=O)(O)OP(=O)(O)OC[C@H]3O[C@@H](n4cnc5c(=O)[nH]c(N)nc54)[C@H](O)[C@@H]3O)[C@@H](O)[C@H]2O)c2nc(N)[n-]c(=O)c21; Active

###

Target: UniProt P06730
Sequence (P06730 whole entry): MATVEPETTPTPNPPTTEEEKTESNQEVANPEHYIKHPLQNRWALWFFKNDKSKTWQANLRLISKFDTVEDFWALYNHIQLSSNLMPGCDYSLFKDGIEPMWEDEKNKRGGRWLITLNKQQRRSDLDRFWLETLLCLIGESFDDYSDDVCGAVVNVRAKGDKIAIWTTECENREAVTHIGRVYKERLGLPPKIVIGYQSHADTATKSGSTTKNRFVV
Experiment: Binding affinity to recombinant eIF4E by fluorescence quenching titration method
quantity measured: Ka (µM⁻¹)

CO[C@@H]1[C@H](O)[C@@H](COP(=O)(O)OP(=O)([O-])OP(=O)(O)OP(=O)(O)OC[C@H]2O[C@@H](n3cnc4c(=O)[nH]c(N)nc43)[C@H](O)[C@@H]2O)O[C@H]1n1c[n+](C)c2c(O)nc(N)nc21; 99.8

I: C[n+]1cn([C@@H]2O[C@H](COP(=O)([O-])OP(=O)(O)OP(=O)(O)NP(=O)(O)OC[C@H]3O[C@@H](n4cnc5c(=O)[nH]c(N)nc54)[C@H](O)[C@@H]3O)[C@@H](O)[C@H]2O)c2nc(N)[nH]c(=O)c21.N.N.N
II: CO[C@@H]1[C@H](O)[C@@H](COP(=O)([O-])NP(=O)([O-])OP(=O)([O-])OC[C@H]2O[C@@H](n3cnc4c(=O)[nH]c(N)nc43)[C@H](O)[C@@H]2O)O[C@H]1n1c[n+](C)c2c(=O)[nH]c(N)nc21.[Na+].[Na+]
Task: Among I and II , whose measured Ka is the smaller figure? Reply briefly: the label of your chosen item.
Result: II
(II: 18.5 µM⁻¹, I: 141 µM⁻¹)

###

Tested on: DcpS
Assay: Stability of the compound assessed as human recombinant DcpS -mediated hydrolysis after 90 mins by HPLC
Format: ADME
Details: human, recombinant DcpS; read-out: Drug degradation
quantity measured: metabolised at 1.5 h (%)
Give your result in % as a bare value.

Task: Find the measured metabolised at 1.5 h: item C[n+]1cn([C@@H]2O[C@H](COP(=O)([O-])OP(=O)([O-])NP(=O)([O-])OC[C@H]3O[C@@H](n4cnc5c(=O)[nH]c(N)nc54)[C@H](O)[C@@H]3O)[C@@H](O)[C@H]2O)c2nc(N)[nH]c(=O)c21.[Na+].[Na+] , target or system DcpS.
Result: 20

###

Biological target: Eukaryotic translation initiation factor 4E (Oryctolagus cuniculus)
Assay: Inhibition of eIF4E-mediated mRNA translation in rabbit reticulocyte lysate assessed as translation efficiency after 60 mins by luciferase reporter gene assay relative to m7GpppG-capped mRNA
quantity measured: fold change (FC)

Some molecules with known fold change (FC) results, for comparison:
CO[C@@H]1[C@H](O)[C@@H](COP(=O)([O-])NP(=O)([O-])OP(=O)([O-])OC[C@H]2O[C@@H](n3cnc4c(=O)[nH]c(N)nc43)[C@H](O)[C@@H]2O)O[C@H]1n1c[n+](C)c2c(=O)[nH]c(N)nc21.[Na+].[Na+]; 1.13
CO[C@@H]1[C@H](O)[C@@H](COP(=O)(O)OP(=O)([O-])OP(=O)(O)CP(=O)(O)OC[C@H]2O[C@@H](n3cnc4c(=O)[nH]c(N)nc43)[C@H](O)[C@@H]2O)O[C@H]1n1c[n+](C)c2c(O)nc(N)nc21; 1.56

a: CO[C@@H]1[C@H](O)[C@@H](COP(=O)(O)OP(=O)([O-])OP(=O)(O)OP(=O)(O)OC[C@H]2O[C@@H](n3cnc4c(=O)[nH]c(N)nc43)[C@H](O)[C@@H]2O)O[C@H]1n1c[n+](C)c2c(O)nc(N)nc21
b: CO[C@@H]1[C@H](O)[C@@H](COP(=O)([O-])OP(=O)([O-])OP(=O)([O-])NP(=O)([O-])OC[C@H]2O[C@@H](n3cnc4c(=O)[nH]c(N)nc43)[C@H](O)[C@@H]2O)O[C@H]1n1c[n+](C)c2c(=O)[nH]c(N)nc21.[Na+].[Na+].[Na+]
Task: For this pair, a and b , which shows a numerically higher fold change (FC)? Reply briefly: the label of your chosen item.
Result: a
